Molecular target: Cytochrome P450 1A2 (Homo sapiens) (UniProt P05177)
Sequence (P05177 whole entry, looked up): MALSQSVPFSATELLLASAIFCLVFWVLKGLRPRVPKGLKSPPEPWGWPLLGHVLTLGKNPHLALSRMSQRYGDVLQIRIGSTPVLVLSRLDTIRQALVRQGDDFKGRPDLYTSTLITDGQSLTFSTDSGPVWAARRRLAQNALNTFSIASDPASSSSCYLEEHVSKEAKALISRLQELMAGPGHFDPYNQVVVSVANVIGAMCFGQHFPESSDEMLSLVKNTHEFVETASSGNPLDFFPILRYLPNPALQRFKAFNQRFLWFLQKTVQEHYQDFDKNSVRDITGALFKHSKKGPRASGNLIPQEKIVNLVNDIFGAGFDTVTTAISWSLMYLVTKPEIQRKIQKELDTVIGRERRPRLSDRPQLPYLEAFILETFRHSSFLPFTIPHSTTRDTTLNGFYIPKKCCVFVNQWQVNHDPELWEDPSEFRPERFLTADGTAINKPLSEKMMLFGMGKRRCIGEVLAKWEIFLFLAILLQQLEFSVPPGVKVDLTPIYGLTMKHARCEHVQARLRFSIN
Test: Cytochrome panel assay with activity outcomes
Details: recombinant CYP, pro-luciferin dealkylation, luminescence, p450-cyp1a2; series mostly up to 57.1 µM
Hit rate of the full screen: of about 16,000 compounds, about 5,700 (36%) were called active. Another 24% or so got no clear call; they are omitted. Calls follow the shape of the dose curve; as a rule, active = well fitted curve in the direction sought with a large enough effect; inconclusive = small, poorly fitted or top-dose-only effect, or effect the other way; inactive = no such curve, though single readings can be large or run the other way. The list shows a part of the results.
Outcome codes: active, inactive

# Compound, Group
records = [
    ("CN(C)CCN1C(=O)C(O)=C(C(=O)c2cc3ccccc3o2)C1c1ccccn1 (stereo unspecified)", "inactive"),
    ("COc1ccc2cc(C(=O)CCC(=O)O)ccc2c1", "active"),
    ("CCOc1ccc(NC(=O)c2oc3ccccc3c2NC(=O)CC)cc1", "active"),
    ("CCOc1ccc(C(=O)CCC(=O)O)cc1", "inactive"),
    ("CCOc1ccccc1NC(=O)C1=C(C)NC(=O)NC1c1cccc(OC)c1OC (stereo unspecified)", "inactive"),
    ("CCOC(=O)C1=C2SCC(=O)N2C(N)=C(C#N)C1", "active"),
    ("O=C(CCN1C(=O)c2ccccc2C1=O)Oc1ccc2ccccc2c1", "active"),
    ("COc1ccccc1CN1CCCC2(CCN(C(=O)c3ccco3)CC2)C1", "inactive"),
    ("CCNC(=S)NNC(=O)CCn1c2ccccc2c2ccccc21", "active"),
    ("Cc1cc(C)n(-c2nnc(C)n2/N=C/c2ccccc2OCc2ccccc2Cl)n1", "active"),
    ("O=c1oc(-c2cccs2)nc2ccc(Br)cc12", "active"),
    ("CCn1cc(C(=O)O)c(=O)c2cc(F)c(N3CCNCC3)nc21", "inactive"),
    ("Cc1cc2cc(C)c3nnc(SCC(=O)NCc4ccc5c(c4)OCO5)n3c2cc1C", "active"),
    ("Nc1c(S(=O)(=O)O)cc(Nc2cccc(S(N)(=O)=O)c2)c2c1C(=O)c1ccccc1C2=O", "active"),
    ("CC(C)OC(=O)C1=C2SCC(=O)N2C(N)=C(C#N)C1", "active"),
    ("O=C(CSc1nnc(SCc2cccc3ccccc23)s1)c1ccc2c(c1)OCO2", "active"),
    ("COc1ccccc1CN1CCC2(CC1)CCN(C(=O)c1ccco1)CC2", "inactive"),
    ("CCOC(=O)c1[nH]c2ccc(OC)cc2c1NC(=O)c1ccc2c(c1)OCO2", "active"),
    ("COc1ccc2cc(CCC(C)=O)ccc2c1", "active"),
    ("COC(=O)C1=C(N)Oc2cc(C)n(CC3CCCO3)c(=O)c2C1c1ccccc1OC (stereo unspecified)", "inactive"),
    ("CCOc1ccc(CNC(=O)C2CC(=O)N(C3CCCC3)C2)cc1OC (stereo unspecified)", "inactive"),
    ("O=c1cnc2cnc(Oc3cccc(Cl)c3)nc2n1C[C@H]1CCCO1", "active"),
    ("CC1CCCC(NC(=O)C2CCN(S(=O)(=O)N3CCOCC3)CC2)C1C (stereo unspecified)", "inactive"),
    ("C[n+]1ccccc1/C=N\\O", "inactive"),
    ("O=C(O)CC[C@@H](C(=O)O)N1C(=O)c2ccccc2C1=O", "inactive"),
    ("O=C(C[C@@H](c1ccccc1)N1CCCCC1)c1ccccc1", "active"),
    ("O=S(=O)(c1ccc(F)cc1)n1ccc(-c2cnc(-c3ccccc3)s2)n1", "active"),
    ("CCNC(=S)NNC(=O)Cc1ccccc1", "inactive"),
    ("COc1ccc(S(=O)(=O)N2CC3C4C=CC(C4)C3C2)cc1 (stereo unspecified)", "inactive"),
    ("NCC(=O)Nc1ccccc1", "active"),
    ("COc1ccc(/C(O)=C2/C(=O)C(=O)N(CCCC(=O)O)C2c2ccc(OC)cc2)cc1 (stereo unspecified)", "inactive"),
    ("CCOc1ccc(CCNC(=O)C2CC(=O)N(C3CCCC3)C2)cc1OCC (stereo unspecified)", "active"),
    ("COC(=O)c1cccc(NC(=O)Nc2ccc(Cl)c(Cl)c2)c1", "active"),
    ("COc1cccc(NC(=O)c2oc3ccccc3c2NC(C)=O)c1", "active"),
    ("COc1ccc(Oc2ncc3nc(C)c(=O)n(C[C@H]4CCCO4)c3n2)cc1", "active"),
    ("Cc1cc(-c2cccs2)nc(-n2cccc2)n1", "active"),
    ("CCOC(=O)c1ccc(Nc2nc(C(=O)OCC)nc3ccccc23)cc1", "active"),
    ("CCN1CCN(CCC(=O)Nc2cccc(OC)c2)CC1", "inactive"),
    ("CC1=C(C(=O)O)N2C(=O)C(NC(=O)c3ccn(C)n3)C2SC1 (stereo unspecified)", "inactive"),
    ("COc1ccc(CCN=CC2=C(O)CC(C)(C)CC2=O)cc1", "inactive"),
    ("CC1CCN(c2cc(N3CCC(C)CC3)c([N+](=O)[O-])cc2/C=C(\\C#N)c2nn(-c3ccccc3)c(N)c2C#N)CC1", "inactive"),
    ("Cc1nc2cnc(N(C)C)nc2n(-c2ccccc2)c1=O", "active"),
    ("COC(=O)c1[nH]c2cc(OC)ccc2c1NC(=O)CCN1CCSCC1", "active"),
    ("O=C(CSc1ccccc1C(=O)O)NCc1ccco1", "inactive"),
    ("COc1ccc(Oc2ncc3ncc(=O)n(C[C@H]4CCCO4)c3n2)cc1", "active"),
    ("CCOC(=O)c1ccc(Nc2nc(-c3cccnc3)nc3ccccc23)cc1", "active"),
]

---

Target: Cytochrome P450 1A2 (Homo sapiens)
Experiment: Cytochrome panel assay with activity outcomes
Conditions: recombinant CYP, pro-luciferin dealkylation, luminescence, p450-cyp1a2; series mostly up to 57.1 µM
Among all 16,000 compounds or so, about 5,700 (36%) were called active. Another 24% or so got no clear call; they are omitted. Calls come from the whole dose curve; as a rule, active = well fitted curve in the direction sought with a large enough effect; inconclusive = small, poorly fitted or top-dose-only effect, or effect the other way; inactive = no such curve, though single readings can be large or run the other way. Some of the results follow.
Outcome codes: true (1) (active), false (0) (inactive)

# Compound, Group
rows = [
    ("CCc1c2c(nc3cccc(OC)c13)OC(CC)C2 (stereo unspecified)", "true (1)"),
    ("Clc1ccccc1CSc1nnc(/C=C/c2ccccc2)o1", "true (1)"),
    ("O=C(COc1ccccc1Cl)Nc1cc(Cl)ccc1Oc1ccccc1", "true (1)"),
    ("Cc1cccc(NC(=S)c2nc3ccccc3s2)c1", "true (1)"),
    ("Nc1nnnn1/N=C\\c1ccc(Cl)c([N+](=O)[O-])c1", "true (1)"),
    ("CN(C)c1ccc(-c2nc(NCc3cccnc3)c3ccccc3n2)cc1", "true (1)"),
    ("Cc1nn2c([nH]c(=O)c3ccccc32)c1C=O", "true (1)"),
    ("CC(C)NC(=O)N1CC[C@@]2(CCCN(C(=O)c3cccc(F)c3)C2)C1", "false (0)"),
    ("Cc1ccc(/C=C2\\OC(=O)c3ccccc32)cc1", "true (1)"),
    ("CCn1c(=O)c2c(nc3n2CCS3)n(C)c1=O", "false (0)"),
    ("Cc1cccc(CNc2nc(-c3cccnc3)nc3ccccc23)c1", "true (1)"),
    ("O=[N+]([O-])c1ccc(N2CCN(Cc3ccccc3)CC2)c(S(=O)(=O)N2CCOCC2)c1", "false (0)"),
    ("O=C(CSCc1c(F)cccc1Cl)NCC1CCCO1 (stereo unspecified)", "true (1)"),
    ("C#CCSc1nnc(-c2cc3c(C(F)(F)F)nn(C)c3s2)n1C", "true (1)"),
    ("Cn1cccc1C(=O)N1CCC2(CCN(Cc3ccccc3)CC2)CC1", "false (0)"),
    ("O=c1c2ccccc2sc2c(CO)ccc(NCCN3CCCCC3)c12", "true (1)"),
    ("O=C(CN(Cc1ccccc1Cl)C(=O)c1ccc(CN2CCOCC2)o1)NCC1CCCO1 (stereo unspecified)", "false (0)"),
    ("Cc1ccc(S(=O)(=O)CCc2nnc(NC(=O)COc3cccc(C)c3)s2)cc1", "false (0)"),
    ("Cc1cc2[nH]c(=O)c3ccccc3n2n1", "true (1)"),
    ("FC(F)(F)c1cc(-c2ccco2)nc(NCc2cccs2)n1", "true (1)"),
    ("CCNC(=S)NNC(=O)c1cc(C2CC2)nc2ccccc12", "true (1)"),
    ("Cc1cc(NC(=O)COc2ccc(Cl)cc2Cl)n(-c2ccccc2)n1", "true (1)"),
    ("Cc1ccc2nc(Cc3ccc(N)cc3)[nH]c2c1", "true (1)"),
    ("COC(=O)N1CCC2(CC1)CCN(c1ccncc1)CC2", "false (0)"),
    ("CC1(C)OC(C(N)=O)C(C(N)=O)O1 (stereo unspecified)", "false (0)"),
    ("COc1ccc(NS(=O)(=O)c2cc(-c3nnnn3C)ccc2OC)cc1", "false (0)"),
    ("CCCCSc1nnc(-c2cc3c(C(F)(F)F)nn(C)c3s2)n1C", "true (1)"),
    ("Cc1cc(C)cc(C(=O)N(NC(=O)Nc2ccc(Cl)cc2)C(C)(C)C)c1", "false (0)"),
    ("CN(C)CCCn1c2c3ccccc3ccc2c2oc(=O)c3ccccc3c21", "true (1)"),
    ("Cc1cc(-c2c(C)[nH]n(-c3ccccc3)c2=O)n(-c2ccccc2)n1", "false (0)"),
    ("COc1ccc2c(c1)-c1ccccc1S(=O)(=O)N2C(C)=O", "true (1)"),
    ("COc1cc(/C=N/NC(=O)c2cccnc2)ccc1OC(=O)c1ccco1", "true (1)"),
    ("O=[N+]([O-])c1ccc(Cl)c(/C=N/N2CCN(Cc3ccccc3)CC2)c1", "true (1)"),
    ("O=[N+]([O-])c1cc(/C=N/N2CCN(C3c4ccccc4-c4ccccc43)CC2)ccc1Cl", "false (0)"),
    ("CC(Sc1nc(-c2ccccc2)cc(C(F)(F)F)n1)C(=O)N1CCCCC1 (stereo unspecified)", "true (1)"),
    ("CC(=O)N[C@H]1[C@@H](O[C@@H](C)C(=O)O)[C@H](O)[C@H](CO)O[C@@H]1O", "false (0)"),
    ("CCNS(=O)(=O)c1ccc(NC(=O)c2cc(C(F)(F)F)nn2C)cc1", "false (0)"),
    ("CC(C)CN1CCCC2(CCN(C(=O)c3cnccn3)CC2)C1", "false (0)"),
    ("N#Cc1c(-c2ccc(Cl)cc2)nc2n(c1=O)CCCS2", "true (1)"),
    ("CCN(CC)CCCNC(=O)CC1Sc2ccccc2NC1=O (stereo unspecified)", "false (0)"),
    ("Cc1cc(NC(=O)C2=C(O)c3ccccc3S(=O)(=O)N2C)no1", "false (0)"),
    ("O=C(NCCCN1CCCCCC1)C1CC(=O)N(CCc2ccccc2)C1 (stereo unspecified)", "false (0)"),
    ("Cc1ccccc1/C=C1\\OC(=O)c2ccccc21", "true (1)"),
    ("CC(=O)Nc1ccc(NC(=O)C/C(C)=N/NC(=O)C(=O)N2CCCC2)cc1", "false (0)"),
    ("Cc1ccc(OCC(=O)Nc2ccc(Cl)cc2)c(-n2nc3ccccc3n2)c1", "true (1)"),
    ("Cc1ccc(N(C(C)C(=O)Nc2cc(Cl)ccc2Oc2ccccc2)S(C)(=O)=O)cc1 (stereo unspecified)", "false (0)"),
]

From: PubChem BioAssay AID1851
